Test system: Streptococcus pneumoniae
Test: Antibacterial activity against Streptococcus pneumoniae ATCC 6301
Assay type: functional
This listing pairs compounds with measured MIC.
The answer is to be given in mg/L; state only the numeric part.

Ask: Value wanted: MIC (Streptococcus pneumoniae) of entry CC[C@H]1OC(=O)C[C@@H](O)[C@H](C)[C@@H](O[C@@H]2O[C@H](C)[C@@H](O)[C@H](N(C)C)[C@H]2O)[C@@H](CC=O)C[C@@H](C)C(=N/OCCCCc2cnc3ccccc3c2)/C=C/C(C)=C/C1CO (stereo partly drawn)
Reply: 0.025

Ask: // same read-out, input: CC[C@H]1OC(=O)C[C@@H](O)[C@H](C)[C@@H](O[C@@H]2O[C@H](C)[C@@H](O)[C@H](N(C)C)[C@@H]2O)[C@@H](CCN2CC(C)CC(C)C2)C[C@@H](C)C(=N\OCCCCc2ccc3ccccc3c2)/C=C/C(C)=C/C1CO (stereo partly drawn)
Reply: 6.25

Ask: // same read-out, input: CC[C@H]1OC(=O)C[C@@H](O)[C@H](C)[C@@H](O[C@@H]2O[C@H](C)[C@@H](O)[C@H](N(C)C)[C@H]2O)[C@@H](CC=O)C[C@@H](C)C(=O)/C=C/C(C)=C/C1CO (stereo partly drawn)
Reply: 0.025

Ask: // same read-out, input: CC[C@H]1OC(=O)C[C@@H](O)[C@H](C)[C@@H](O[C@@H]2O[C@H](C)[C@@H](O)[C@H](N(C)C)[C@@H]2O)[C@@H](CCN2CC(C)CC(C)C2)C[C@@H](C)C(=N\OCC(=O)N2CCN(c3ccccc3)CC2)/C=C/C(C)=C/C1CO (stereo partly drawn)
Reply: 0.049

Ask: // same read-out, input: CC[C@H]1OC(=O)C[C@@H](O)[C@H](C)[C@@H](O[C@@H]2O[C@H](C)[C@@H](O)[C@H](N(C)C)[C@H]2O)[C@@H](CC=O)C[C@@H](C)C(=N/OCCOc2ccccc2)/C=C/C(C)=C/C1CO (stereo partly drawn)
Reply: 0.025

Ask: // same read-out, input: CC[C@H]1OC(=O)C[C@@H](O)[C@H](C)[C@@H](O[C@@H]2O[C@H](C)[C@@H](O)[C@H](N(C)C)[C@@H]2O)[C@@H](CCN2CC(C)CC(C)C2)C[C@@H](C)C(=N\OCc2ccc(F)cc2)/C=C/C(C)=C/C1CO (stereo partly drawn)
Reply: 0.39

Ask: // same read-out, input: CC[C@H]1OC(=O)C[C@@H](O)[C@H](C)[C@@H](O[C@@H]2O[C@H](C)[C@@H](O)[C@H](N(C)C)[C@H]2O)[C@@H](CC=O)C[C@@H](C)C(=N\OCCOc2ccccc2)/C=C/C(C)=C/C1CO (stereo partly drawn)
Reply: 0.098

Ask: // same read-out, input: CC[C@H]1OC(=O)C[C@@H](O)[C@H](C)[C@@H](O[C@@H]2O[C@H](C)[C@@H](O)[C@H](N(C)C)[C@H]2O)[C@@H](CCN2C[C@H](C)C[C@H](C)C2)C[C@@H](C)C(=O)/C=C/C(C)=C/[C@@H]1CO[C@@H]1O[C@H](C)[C@@H](O)[C@@H](OC)[C@H]1OC
Reply: 0.39
